- TARGET: Vascular endothelial growth factor receptor 1 (Homo sapiens)
- Sequence (P17948 whole entry): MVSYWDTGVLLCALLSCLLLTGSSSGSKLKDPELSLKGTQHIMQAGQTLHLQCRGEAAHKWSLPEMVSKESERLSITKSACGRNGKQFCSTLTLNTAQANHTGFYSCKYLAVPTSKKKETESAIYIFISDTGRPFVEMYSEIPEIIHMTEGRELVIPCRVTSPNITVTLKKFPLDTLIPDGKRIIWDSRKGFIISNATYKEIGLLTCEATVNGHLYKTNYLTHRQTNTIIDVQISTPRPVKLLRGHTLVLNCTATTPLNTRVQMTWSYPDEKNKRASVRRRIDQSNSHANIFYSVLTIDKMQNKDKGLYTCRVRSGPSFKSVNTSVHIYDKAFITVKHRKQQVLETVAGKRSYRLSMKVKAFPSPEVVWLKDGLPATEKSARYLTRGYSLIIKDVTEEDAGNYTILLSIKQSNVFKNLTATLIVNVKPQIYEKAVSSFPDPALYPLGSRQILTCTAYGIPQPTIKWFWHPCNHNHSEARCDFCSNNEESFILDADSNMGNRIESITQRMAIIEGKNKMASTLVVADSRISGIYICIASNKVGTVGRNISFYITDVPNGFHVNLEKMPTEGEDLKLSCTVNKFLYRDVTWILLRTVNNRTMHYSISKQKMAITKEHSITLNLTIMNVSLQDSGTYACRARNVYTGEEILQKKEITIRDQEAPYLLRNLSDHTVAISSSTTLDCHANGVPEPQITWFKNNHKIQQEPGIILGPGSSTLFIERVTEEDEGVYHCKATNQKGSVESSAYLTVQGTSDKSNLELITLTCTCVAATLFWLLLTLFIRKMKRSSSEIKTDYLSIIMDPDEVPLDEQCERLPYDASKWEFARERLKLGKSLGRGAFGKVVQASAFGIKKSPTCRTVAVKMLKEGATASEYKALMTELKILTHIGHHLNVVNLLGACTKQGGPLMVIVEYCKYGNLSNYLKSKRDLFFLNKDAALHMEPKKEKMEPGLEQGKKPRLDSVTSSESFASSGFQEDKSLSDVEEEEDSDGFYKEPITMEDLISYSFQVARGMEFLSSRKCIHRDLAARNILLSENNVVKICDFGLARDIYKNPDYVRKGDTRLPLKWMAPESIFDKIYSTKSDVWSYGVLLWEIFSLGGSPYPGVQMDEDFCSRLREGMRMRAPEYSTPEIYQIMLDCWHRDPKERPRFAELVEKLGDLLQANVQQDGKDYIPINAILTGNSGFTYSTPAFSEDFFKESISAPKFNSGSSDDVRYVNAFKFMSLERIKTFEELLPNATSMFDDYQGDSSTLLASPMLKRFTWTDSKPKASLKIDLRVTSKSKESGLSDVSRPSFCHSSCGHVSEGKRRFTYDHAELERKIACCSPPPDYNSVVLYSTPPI
pIC50: −log10 of the molar value.
MEASURE_NAME: pIC50

# COMPOUND, VALUE_MEASURED
rows = [
    ("CC(NC(=O)c1ccc2[nH]nc(-c3ccncc3)c2c1)c1cccc(Cl)c1 (stereo unspecified)", "< 6.00"),
]

###

- TARGET: Receptor tyrosine-protein kinase erbB-2 (Homo sapiens, UniProt P04626)
- Sequence (P04626 whole entry): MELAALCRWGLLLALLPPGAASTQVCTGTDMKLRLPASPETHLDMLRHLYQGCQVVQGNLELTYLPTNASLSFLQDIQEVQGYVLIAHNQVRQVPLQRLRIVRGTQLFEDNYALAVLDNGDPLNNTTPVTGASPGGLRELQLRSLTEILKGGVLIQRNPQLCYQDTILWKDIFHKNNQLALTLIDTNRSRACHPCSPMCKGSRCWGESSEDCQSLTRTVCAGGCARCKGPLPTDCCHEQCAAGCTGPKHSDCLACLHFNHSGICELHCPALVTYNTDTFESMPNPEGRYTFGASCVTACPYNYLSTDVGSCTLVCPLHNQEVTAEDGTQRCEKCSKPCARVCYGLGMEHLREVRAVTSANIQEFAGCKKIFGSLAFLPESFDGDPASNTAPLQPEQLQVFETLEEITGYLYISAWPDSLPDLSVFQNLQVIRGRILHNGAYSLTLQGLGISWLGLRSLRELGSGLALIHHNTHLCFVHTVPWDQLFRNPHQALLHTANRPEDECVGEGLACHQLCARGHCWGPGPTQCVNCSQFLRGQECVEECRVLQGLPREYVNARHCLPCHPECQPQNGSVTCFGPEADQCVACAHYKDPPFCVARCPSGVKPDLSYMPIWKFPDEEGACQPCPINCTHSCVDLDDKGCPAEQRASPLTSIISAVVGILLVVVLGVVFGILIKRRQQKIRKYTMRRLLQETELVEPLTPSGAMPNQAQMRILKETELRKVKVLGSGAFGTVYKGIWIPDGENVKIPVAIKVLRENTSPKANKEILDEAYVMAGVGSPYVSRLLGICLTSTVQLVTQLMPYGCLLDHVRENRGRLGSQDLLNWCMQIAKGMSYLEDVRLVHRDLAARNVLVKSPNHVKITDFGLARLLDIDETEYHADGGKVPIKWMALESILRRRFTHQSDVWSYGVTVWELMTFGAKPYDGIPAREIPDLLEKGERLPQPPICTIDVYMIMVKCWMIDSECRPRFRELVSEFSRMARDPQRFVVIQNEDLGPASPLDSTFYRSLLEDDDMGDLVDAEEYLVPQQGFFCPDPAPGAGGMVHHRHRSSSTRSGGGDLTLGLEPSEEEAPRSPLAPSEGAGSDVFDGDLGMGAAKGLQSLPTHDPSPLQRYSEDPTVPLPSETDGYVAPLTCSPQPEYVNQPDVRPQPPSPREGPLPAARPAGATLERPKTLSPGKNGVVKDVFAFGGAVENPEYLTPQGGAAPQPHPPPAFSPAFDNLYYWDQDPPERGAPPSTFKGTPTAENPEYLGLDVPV
pIC50: −log10 of the molar value.
MEASURE_NAME: pIC50

# MOLECULE, TARGET, MEASURE_NAME, VALUE_MEASURED
records = [
    ("Cc1cc(-c2n[nH]c3ccc(C(=O)NC(C)c4c(Cl)cncc4Cl)cc23)ccn1 (stereo unspecified)", "Receptor tyrosine-protein kinase erbB-2 (Homo sapiens, UniProt P04626)", "pIC50", "< 6.00"),
]

###

- TARGET: Vascular endothelial growth factor receptor 2 (Homo sapiens)
- Sequence (P35968 whole entry): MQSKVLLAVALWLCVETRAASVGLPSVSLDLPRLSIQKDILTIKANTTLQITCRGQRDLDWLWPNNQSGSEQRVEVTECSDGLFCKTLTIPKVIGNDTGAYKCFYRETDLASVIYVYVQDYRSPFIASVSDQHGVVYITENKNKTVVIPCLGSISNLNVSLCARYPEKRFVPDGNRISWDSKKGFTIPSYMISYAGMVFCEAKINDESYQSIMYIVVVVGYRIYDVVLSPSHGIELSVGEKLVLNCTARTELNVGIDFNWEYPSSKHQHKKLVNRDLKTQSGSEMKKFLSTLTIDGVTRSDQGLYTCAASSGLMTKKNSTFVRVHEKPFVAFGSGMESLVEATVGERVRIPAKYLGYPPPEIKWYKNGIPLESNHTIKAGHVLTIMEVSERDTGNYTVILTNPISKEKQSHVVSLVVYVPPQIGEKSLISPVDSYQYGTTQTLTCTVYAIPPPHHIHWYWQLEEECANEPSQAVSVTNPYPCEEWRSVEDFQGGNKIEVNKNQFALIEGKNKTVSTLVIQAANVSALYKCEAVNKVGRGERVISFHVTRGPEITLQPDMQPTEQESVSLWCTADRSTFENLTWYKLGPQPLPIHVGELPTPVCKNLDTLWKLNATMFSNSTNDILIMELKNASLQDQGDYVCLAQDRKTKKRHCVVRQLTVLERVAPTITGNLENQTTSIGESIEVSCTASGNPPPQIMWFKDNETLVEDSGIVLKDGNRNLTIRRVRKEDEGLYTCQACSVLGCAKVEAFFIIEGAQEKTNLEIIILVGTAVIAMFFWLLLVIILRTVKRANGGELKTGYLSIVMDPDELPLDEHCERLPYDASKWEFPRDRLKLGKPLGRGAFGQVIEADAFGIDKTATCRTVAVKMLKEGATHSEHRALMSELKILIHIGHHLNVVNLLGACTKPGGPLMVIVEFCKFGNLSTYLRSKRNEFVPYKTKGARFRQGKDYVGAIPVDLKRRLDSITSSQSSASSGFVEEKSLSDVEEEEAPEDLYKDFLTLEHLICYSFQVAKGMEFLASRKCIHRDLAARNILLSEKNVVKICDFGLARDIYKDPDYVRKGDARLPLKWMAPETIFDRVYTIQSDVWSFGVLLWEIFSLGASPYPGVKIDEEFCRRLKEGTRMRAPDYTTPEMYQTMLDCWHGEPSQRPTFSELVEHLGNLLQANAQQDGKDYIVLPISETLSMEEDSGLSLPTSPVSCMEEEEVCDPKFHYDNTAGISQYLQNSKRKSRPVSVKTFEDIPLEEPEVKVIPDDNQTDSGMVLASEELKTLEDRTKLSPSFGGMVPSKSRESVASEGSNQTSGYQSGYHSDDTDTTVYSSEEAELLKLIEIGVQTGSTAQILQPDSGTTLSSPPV
pIC50: −log10 of the molar value.

# COMPOUND, pIC50
records = [
    ("CC(NC(=O)c1ccc2[nH]nc(-c3ccncc3)c2c1)c1cccc(Cl)c1 (stereo unspecified)", "< 6.00"),
]

###

Recorded pIC50 values for a group of compounds are listed next.
- TARGET: Mitogen-activated protein kinase 1 (Homo sapiens, UniProt P28482)
- Sequence (P28482 whole entry): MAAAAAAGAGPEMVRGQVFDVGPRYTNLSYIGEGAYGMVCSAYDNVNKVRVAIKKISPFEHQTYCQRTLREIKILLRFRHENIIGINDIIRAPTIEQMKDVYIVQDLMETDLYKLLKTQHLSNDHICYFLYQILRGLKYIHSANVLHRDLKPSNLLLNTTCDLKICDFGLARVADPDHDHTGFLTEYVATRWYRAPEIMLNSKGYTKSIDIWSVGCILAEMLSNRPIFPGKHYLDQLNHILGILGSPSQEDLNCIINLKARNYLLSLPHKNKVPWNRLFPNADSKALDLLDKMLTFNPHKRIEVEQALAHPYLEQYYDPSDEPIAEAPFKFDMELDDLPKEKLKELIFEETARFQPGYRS
- METHOD_DESCRIPTION: Inhibition of human recombinant GST-tagged ERK2 expressed in Escherichia coli using ser/thr 3 Peptide as substrate preincubated for 1 hr measured after 1 hr by Z-LYTE assay
pIC50: −log10 of the molar value.
MEASURE_NAME: pIC50

# COMPOUND, TARGET, MEASURE_NAME, RELATIONAL_OPERATOR, VALUE_MEASURED
data = [
    ("O=C(NCc1ccnc(Cl)c1)c1ccc2[nH]nc(-c3ccncc3)c2c1", "Mitogen-activated protein kinase 1 (Homo sapiens, UniProt P28482)", "pIC50", "=", 7.65),
    ("Cc1cc(-c2n[nH]c3ccc(C(=O)NCc4c(Cl)cnc(Cl)c4Cl)cc23)ccn1", "Mitogen-activated protein kinase 1 (Homo sapiens, UniProt P28482)", "pIC50", "=", 8.10),
    ("CC(CNC(=O)c1ccc2[nH]nc(-c3ccncc3)c2c1)Oc1ccccc1 (stereo not drawn)", "Mitogen-activated protein kinase 1 (Homo sapiens, UniProt P28482)", "pIC50", "=", 7.41),
    ("O=C(NCc1ccccc1Cl)c1ccc2[nH]nc(-c3ccncc3)c2c1", "Mitogen-activated protein kinase 1 (Homo sapiens, UniProt P28482)", "pIC50", "=", 7.50),
    ("O=C(NCc1ccc(Cl)c(F)c1Cl)c1ccc2[nH]nc(-c3ccncc3)c2c1", "Mitogen-activated protein kinase 1 (Homo sapiens, UniProt P28482)", "pIC50", "=", 7.92),
    ("CC(C)CC(NC(=O)c1ccc2[nH]nc(-c3ccncc3)c2c1)c1cccc(Cl)c1 (stereo not drawn)", "Mitogen-activated protein kinase 1 (Homo sapiens, UniProt P28482)", "pIC50", "<", 5.70),
    ("O=C(NC(CO)c1cccc(Cl)c1)c1ccc2[nH]nc(C3CCOCC3)c2c1 (stereo not drawn)", "Mitogen-activated protein kinase 1 (Homo sapiens, UniProt P28482)", "pIC50", "=", 6.53),
    ("Cc1cc(-c2n[nH]c3ccc(C(=O)N[C@@H](C)c4c(Cl)cccc4Cl)cc23)ccn1", "Mitogen-activated protein kinase 1 (Homo sapiens, UniProt P28482)", "pIC50", "=", 8.02),
    ("O=C(NCCNc1ccccc1)c1ccc2[nH]nc(-c3ccncc3)c2c1", "Mitogen-activated protein kinase 1 (Homo sapiens, UniProt P28482)", "pIC50", "=", 6.86),
    ("O=C(NCc1cccc(Cl)c1)c1ccc2[nH]nc(-c3ccncc3)c2c1", "Mitogen-activated protein kinase 1 (Homo sapiens, UniProt P28482)", "pIC50", "=", 7.90),
    ("O=C(NC(CO)c1cccc(Cl)c1)c1ccc2[nH]nc(-c3ccncc3)c2c1 (stereo not drawn)", "Mitogen-activated protein kinase 1 (Homo sapiens, UniProt P28482)", "pIC50", "=", 7.62),
    ("O=C(NCc1c(Cl)cccc1Cl)c1ccc2[nH]nc(-c3ccncc3)c2c1", "Mitogen-activated protein kinase 1 (Homo sapiens, UniProt P28482)", "pIC50", "=", 6.81),
    ("Cc1cc(-c2n[nH]c3ccc(C(=O)N[C@H](C)c4c(Cl)cccc4Cl)cc23)ccn1", "Mitogen-activated protein kinase 1 (Homo sapiens, UniProt P28482)", "pIC50", "=", 6.20),
    ("Cc1cc(-c2n[nH]c3ccc(C(=O)NC(C)c4cccc(Cl)c4)cc23)cc(C)n1 (stereo not drawn)", "Mitogen-activated protein kinase 1 (Homo sapiens, UniProt P28482)", "pIC50", "=", 6.96),
    ("O=C(NC(CO)c1cc(Cl)cc(Cl)c1)c1ccc2[nH]nc(-c3ccncc3)c2c1 (stereo not drawn)", "Mitogen-activated protein kinase 1 (Homo sapiens, UniProt P28482)", "pIC50", "=", 7.21),
    ("O=C(NC(CO)c1cccc(Cl)c1)c1ccc2[nH]nc(-c3ccc(O)c(F)c3)c2c1 (stereo not drawn)", "Mitogen-activated protein kinase 1 (Homo sapiens, UniProt P28482)", "pIC50", "=", 7.48),
    ("O=C(NCCOc1ccccc1)c1ccc2[nH]nc(-c3ccncc3)c2c1", "Mitogen-activated protein kinase 1 (Homo sapiens, UniProt P28482)", "pIC50", "=", 7.20),
    ("C[C@H](NC(=O)c1ccc2[nH]nc(-c3ccncc3)c2c1)c1cccc(Cl)c1", "Mitogen-activated protein kinase 1 (Homo sapiens, UniProt P28482)", "pIC50", "=", 6.33),
    ("CCC(NC(=O)c1ccc2[nH]nc(-c3ccncc3)c2c1)c1cccc(Cl)c1 (stereo not drawn)", "Mitogen-activated protein kinase 1 (Homo sapiens, UniProt P28482)", "pIC50", "=", 7.23),
    ("O=C(NCCCc1ccccc1)c1ccc2[nH]nc(-c3ccncc3)c2c1", "Mitogen-activated protein kinase 1 (Homo sapiens, UniProt P28482)", "pIC50", "=", 7.47),
    ("CC(CNC(=O)c1ccc2[nH]nc(-c3ccncc3)c2c1)OCc1ccccc1 (stereo not drawn)", "Mitogen-activated protein kinase 1 (Homo sapiens, UniProt P28482)", "pIC50", "=", 7.05),
    ("CC(NC(=O)c1ccc2[nH]nc(-c3ccncc3)c2c1)c1cccc(Cl)c1 (stereo not drawn)", "Mitogen-activated protein kinase 1 (Homo sapiens, UniProt P28482)", "pIC50", "=", 7.27),
    ("Nc1cc(-c2n[nH]c3ccc(C(=O)NC(CO)c4cccc(Cl)c4)cc23)ccn1 (stereo not drawn)", "Mitogen-activated protein kinase 1 (Homo sapiens, UniProt P28482)", "pIC50", "=", 7.81),
    ("O=C(NCc1ccccc1)c1ccc2[nH]nc(-c3ccncc3)c2c1", "Mitogen-activated protein kinase 1 (Homo sapiens, UniProt P28482)", "pIC50", "=", 7.30),
    ("Cc1cc(-c2n[nH]c3ccc(C(=O)NC(C)c4ccncc4)cc23)ccn1 (stereo not drawn)", "Mitogen-activated protein kinase 1 (Homo sapiens, UniProt P28482)", "pIC50", "=", 6.65),
    ("O=C(N[C@@H](CO)c1cccc(Cl)c1)c1ccc2[nH]nc(-c3ccncc3)c2c1", "Mitogen-activated protein kinase 1 (Homo sapiens, UniProt P28482)", "pIC50", "=", 6.66),
    ("O=C(NCCc1ccccc1)c1ccc2[nH]nc(-c3ccncc3)c2c1", "Mitogen-activated protein kinase 1 (Homo sapiens, UniProt P28482)", "pIC50", "=", 7.71),
    ("O=C(NCCc1cccc(Cl)c1)c1ccc2[nH]nc(-c3ccncc3)c2c1", "Mitogen-activated protein kinase 1 (Homo sapiens, UniProt P28482)", "pIC50", "=", 6.37),
    ("O=C(N[C@H](CO)c1cccc(Cl)c1)c1ccc2[nH]nc(-c3ccncc3)c2c1", "Mitogen-activated protein kinase 1 (Homo sapiens, UniProt P28482)", "pIC50", "=", 8.15),
    ("CC(NC(=O)c1ccc2[nH]nc(-c3cc(F)c(O)c(F)c3)c2c1)c1cccc(Cl)c1 (stereo not drawn)", "Mitogen-activated protein kinase 1 (Homo sapiens, UniProt P28482)", "pIC50", "=", 7.65),
    ("C[C@@H](NC(=O)c1ccc2[nH]nc(-c3ccncc3)c2c1)c1cccc(Cl)c1", "Mitogen-activated protein kinase 1 (Homo sapiens, UniProt P28482)", "pIC50", "=", 7.59),
    ("O=C(NC(CO)c1cccc(Cl)c1)c1ccc2[nH]nc(-c3ccccc3)c2c1 (stereo not drawn)", "Mitogen-activated protein kinase 1 (Homo sapiens, UniProt P28482)", "pIC50", "=", 6.56),
    ("Cc1cc(-c2n[nH]c3ccc(C(=O)NC(C)c4c(Cl)cnc(Cl)c4Cl)cc23)ccn1 (stereo not drawn)", "Mitogen-activated protein kinase 1 (Homo sapiens, UniProt P28482)", "pIC50", "=", 7.88),
]
